Hey, just so you know, these numbers are from patent US11286248B2.

# test system: human FGFR1 (Homo sapiens, UniProt P11362)
# Construct: purchased Invitrogen PV3146
# Sequence (P11362 22-822): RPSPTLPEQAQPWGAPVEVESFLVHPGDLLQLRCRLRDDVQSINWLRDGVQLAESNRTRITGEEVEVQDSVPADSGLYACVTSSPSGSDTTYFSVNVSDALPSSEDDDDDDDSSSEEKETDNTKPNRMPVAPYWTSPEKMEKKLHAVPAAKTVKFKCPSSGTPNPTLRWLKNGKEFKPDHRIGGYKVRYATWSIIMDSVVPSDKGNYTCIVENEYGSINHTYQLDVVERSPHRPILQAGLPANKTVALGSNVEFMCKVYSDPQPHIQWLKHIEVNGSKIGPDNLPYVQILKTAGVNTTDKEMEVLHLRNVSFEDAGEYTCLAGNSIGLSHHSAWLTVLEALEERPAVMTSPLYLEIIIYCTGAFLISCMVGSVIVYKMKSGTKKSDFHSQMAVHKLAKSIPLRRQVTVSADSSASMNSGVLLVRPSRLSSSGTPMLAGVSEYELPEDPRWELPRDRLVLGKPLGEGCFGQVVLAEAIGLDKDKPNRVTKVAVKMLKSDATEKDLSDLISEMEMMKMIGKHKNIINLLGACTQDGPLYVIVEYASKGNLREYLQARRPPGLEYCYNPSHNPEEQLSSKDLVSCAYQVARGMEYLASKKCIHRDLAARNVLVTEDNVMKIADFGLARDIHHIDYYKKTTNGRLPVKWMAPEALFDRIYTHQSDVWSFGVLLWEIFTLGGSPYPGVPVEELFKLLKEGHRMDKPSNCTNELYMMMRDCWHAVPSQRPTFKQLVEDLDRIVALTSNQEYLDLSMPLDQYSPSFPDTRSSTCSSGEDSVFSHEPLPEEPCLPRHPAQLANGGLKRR
# test details: 33P isotope-labeled kinase activity test (Reaction Biology Corp), wild-type FGFR1
# Type: biochemical
# test context: 33P-ATP 5 μM, substrate pEY + Mn, 120 minutes at room temperature
# Description: The IC50 value is determined using ^33P isotope-labeled kinase activity test (Reaction Biology Corp) to evaluate the inhibitory ability of the compounds to be tested on human FGFR1 and FGFR4. […]
Where a name gives a salt, the structure may show the parent alone.
measured property: IC50 (nM)

Examples from the recorded data:
COc1cc(OC)cc(-c2nc(-c3nc(-c4cnn(CC(O)CC(F)(F)F)c4C)cnc3N)cn(C)c2=O)c1 (single isomer, unassigned) [compound 0065] :: 407
COc1cc(OC)c(Cl)c(-c2nc(-c3nc(-c4cn(C)nc4C)cnc3N)cn(C)c2=O)c1 [Trifluoroacetate salt of 0027] :: 2.12
COc1cc(OC)cc(-c2nc(-c3nc(-c4cn(C)nc4C)cnc3N)cn(C)c2=O)c1 [Hydrochloride salt of 0023] :: 164
COc1cc(OC)cc(-c2nc(-c3nc(-c4cn(CC(O)CC(F)(F)F)nc4C)cnc3N)cn(C)c2=O)c1 (single isomer, unassigned) [compound 0062] :: 61.6

P = COc1cc(OC)cc(-c2nc(-c3nc(-c4cn(CC5(C#N)CC5)nc4C)cnc3N)cn(C)c2=O)c1
Q = COc1cc(OC)c(F)c(-c2nc(-c3nc(-c4cn(C)nc4C)cnc3N)cn(C)c2=O)c1 [Trifluoroacetate salt of 0029]
R = COc1cc(OC)cc(-c2nc(-c3nc(-c4cnn(C5CCN(C)CC5)c4C)cnc3N)cn(C)c2=O)c1 [Trifluoroacetate salt of 0031]
S = COc1cc(OC)cc(-c2nc(-c3nc(-c4cccnc4)cnc3N)cn(C)c2=O)c1 [Trifluoroacetate salt of 0018]
Order these by IC50, descending, and give the full ranking. Please write the labels in the order that was asked for.
S, R, P, Q

* * *

# test details: Pharmacokinetic evaluation of compounds in mice
# Assay type: in vivo
# test context: po, 300 mg/kg; CD-1 mouse (male), single gavage, 300 mpk, plasma
Counter-ions that a name gives are not always drawn.
measured property: AUC(0-t) (µM·h)
State just the number; it will be interpreted in µM·h.

Identify measured AUC(0-t) corresponding to COc1cc(OC)c(Cl)c(-c2nc(-c3nc(-c4cn(C)nc4C)cnc3N)cn(C)c2=O)c1 [Trifluoroacetate salt of 0027]
699

* * *

# test system: FGFR2 (Homo sapiens, UniProt P21802)
# Construct: purchased Invitrogen PV3368
# Sequence (P21802 22-821): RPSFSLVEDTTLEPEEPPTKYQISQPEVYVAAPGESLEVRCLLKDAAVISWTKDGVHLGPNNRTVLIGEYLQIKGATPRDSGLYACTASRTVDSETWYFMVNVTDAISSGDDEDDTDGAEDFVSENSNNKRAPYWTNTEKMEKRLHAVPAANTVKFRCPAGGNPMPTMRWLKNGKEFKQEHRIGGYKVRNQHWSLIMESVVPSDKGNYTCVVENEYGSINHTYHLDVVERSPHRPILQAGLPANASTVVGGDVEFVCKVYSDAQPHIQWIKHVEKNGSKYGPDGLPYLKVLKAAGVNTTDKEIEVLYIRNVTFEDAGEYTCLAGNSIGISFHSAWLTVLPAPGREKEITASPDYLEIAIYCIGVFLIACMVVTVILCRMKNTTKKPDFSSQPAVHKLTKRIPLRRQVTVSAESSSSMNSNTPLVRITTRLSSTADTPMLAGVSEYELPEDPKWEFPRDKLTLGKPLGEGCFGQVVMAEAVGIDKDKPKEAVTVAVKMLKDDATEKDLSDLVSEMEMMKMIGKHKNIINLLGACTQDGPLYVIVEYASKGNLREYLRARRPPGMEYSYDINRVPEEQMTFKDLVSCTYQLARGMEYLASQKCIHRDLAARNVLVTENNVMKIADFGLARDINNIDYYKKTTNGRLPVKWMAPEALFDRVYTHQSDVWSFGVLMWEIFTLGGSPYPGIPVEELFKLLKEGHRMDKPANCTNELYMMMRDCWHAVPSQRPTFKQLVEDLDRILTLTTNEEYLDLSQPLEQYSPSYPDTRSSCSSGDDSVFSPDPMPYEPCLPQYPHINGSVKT
# test details: 33P isotope-labeled kinase activity test (Reaction Biology Corp), wild-type FGFR2
# Format: biochemical
# test context: wild-type kinase, 33P-ATP 5 μM, substrate pEY + Mn, 120 minutes at room temperature
Structures can show the parent of a compound that is named as a salt.
measured property: IC50 (nM)

COc1cc(OC)c(F)c(-c2nc(-c3nc(-c4cn(C)nc4C)cnc3N)cn(C)c2=O)c1 [Trifluoroacetate salt of 0029] :: 0.56
COc1cc(OC)cc(-c2nc(-c3nc(-c4cnn(CCO)c4C)cnc3N)cn(C)c2=O)c1 :: 65.5
COc1cc(OC)cc(-c2nc(-c3nc(-c4cn(C)nc4C)cnc3N)cn(C)c2=O)c1 [Hydrochloride salt of 0023] :: 32.1
CCNC(=O)c1ccc(-c2cnc(N)c(-c3cn(C)c(=O)c(-c4cc(OC)cc(OC)c4)n3)n2)cn1 :: 146
COc1cc(OC)cc(-c2nc(-c3nc(-c4cnn(C5CCN(C)CC5)c4C)cnc3N)cn(C)c2=O)c1 [Trifluoroacetate salt of 0031] :: 44

P = COc1cc(OC)c(Cl)c(-c2nc(-c3nc(-c4ccc(C5CCN(C)CC5)nc4)cnc3N)cn(C)c2=O)c1 [Trifluoroacetate salt of 0060]
Q = COc1cc(OC)cc(-c2nc(-c3nc(-c4cnn(C)c4)cnc3N)cn(C)c2=O)c1
R = COc1cc(OC)cc(-c2nc(-c3nc(-c4cnn(CC(O)CC(F)(F)F)c4C)cnc3N)cn(C)c2=O)c1 (single isomer, unassigned) [compound 0065]
S = COCCN1CCC(n2cc(-c3cnc(N)c(-c4cn(C)c(=O)c(-c5cc(OC)cc(OC)c5)n4)n3)c(C)n2)CC1
Arrange the 4 molecules by rising IC50, starting with the smallest. Please write the labels in the order that was asked for.
P, S, Q, R
(P: 0.533 nM, S: 5.83 nM, Q: 8.79 nM, R: 53.9 nM)

* * *

# test system: FGFR3 (Homo sapiens)
# Construct: purchased Invitrogen PV3145
# Sequence (P22607 23-806): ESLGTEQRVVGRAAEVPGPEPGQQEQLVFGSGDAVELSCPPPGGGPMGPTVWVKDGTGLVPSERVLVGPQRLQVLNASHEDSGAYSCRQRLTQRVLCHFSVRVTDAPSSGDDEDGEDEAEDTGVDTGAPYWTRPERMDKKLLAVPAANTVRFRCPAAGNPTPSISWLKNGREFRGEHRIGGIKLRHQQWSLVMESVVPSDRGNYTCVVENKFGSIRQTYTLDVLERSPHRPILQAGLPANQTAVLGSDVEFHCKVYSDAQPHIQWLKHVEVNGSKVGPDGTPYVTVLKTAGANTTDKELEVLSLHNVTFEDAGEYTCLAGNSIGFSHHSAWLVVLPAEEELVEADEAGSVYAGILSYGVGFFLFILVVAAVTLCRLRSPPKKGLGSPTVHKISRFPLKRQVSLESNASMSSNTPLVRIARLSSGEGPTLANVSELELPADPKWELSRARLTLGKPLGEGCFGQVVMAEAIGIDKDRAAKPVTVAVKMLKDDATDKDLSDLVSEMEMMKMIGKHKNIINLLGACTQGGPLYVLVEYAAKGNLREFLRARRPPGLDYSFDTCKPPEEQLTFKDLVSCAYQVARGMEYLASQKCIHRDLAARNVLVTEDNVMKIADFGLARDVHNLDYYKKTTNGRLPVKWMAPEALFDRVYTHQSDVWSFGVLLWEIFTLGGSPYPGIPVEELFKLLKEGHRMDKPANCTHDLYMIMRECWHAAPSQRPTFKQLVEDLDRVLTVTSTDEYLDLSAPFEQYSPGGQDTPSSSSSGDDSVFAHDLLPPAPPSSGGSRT
# test details: 33P isotope-labeled kinase activity test (Reaction Biology Corp), wild-type FGFR3
# Type: biochemical
# test context: ratio of IC50 FGFR1 to IC50 FGFR3
Counter-ions that a name gives are not always drawn.
measured property: Selectivity FGFR1/3

COc1cc(OC)c(F)c(-c2nc(-c3nc(-c4cn(C)nc4C)cnc3N)cn(C)c2=O)c1 [Trifluoroacetate salt of 0029] :: 1.52
COc1cc(OC)cc(-c2nc(-c3nc(-c4cnn(CC5(C#N)CC5)c4C)cnc3N)cn(C)c2=O)c1 :: 7.12

P = COc1cc(OC)cc(-c2nc(-c3nc(-c4cnn(CCO)c4C)cnc3N)cn(C)c2=O)c1
Q = COc1cc(OC)cc(-c2nc(-c3nc(-c4cnn(C)c4)cnc3N)cn(C)c2=O)c1
Of P and Q , which shows the smaller Selectivity FGFR1/3 value? To answer, give the label that identifies your chosen option.
P

P = COc1cc(OC)cc(-c2nc(-c3nc(-c4cncc(C)c4)cnc3N)cn(C)c2=O)c1
Q = COc1cc(OC)cc(-c2nc(-c3nc(-c4cn(CC(O)CC(F)(F)F)nc4C)cnc3N)cn(C)c2=O)c1 (single isomer, unassigned) [compound 0063]
R = COc1cc(OC)cc(-c2nc(-c3nc(-c4cnc5c(c4)CC(=O)N5C)cnc3N)cn(C)c2=O)c1 [Hydrochloride salt of 0033]
S = COc1cc(OC)cc(-c2nc(-c3nc(-c4cccnc4)cnc3N)cn(C)c2=O)c1 [Trifluoroacetate salt of 0018]
Order these by Selectivity FGFR1/3, descending, and give the full ranking. Please write the labels in the order that was asked for.
S, R, P, Q

* * *

# test details: Pharmacokinetic evaluation of compounds in mice
# Format: in vivo
# test context: po, 50 mg/kg; CD-1 mouse (male), single gavage, 50 mpk, plasma
Where a name gives a salt, the structure may show the parent alone.
measured property: Tmax (h)
State just the number; it will be interpreted in h.

Identify measured Tmax corresponding to COc1cc(OC)c(Cl)c(-c2nc(-c3nc(-c4cn(C)nc4C)cnc3N)cn(C)c2=O)c1 [Trifluoroacetate salt of 0027]
1

* * *

# test system: FGFR2 (Homo sapiens)
# Construct: purchased Invitrogen PV3368
# test details: 33P isotope-labeled kinase activity test (Reaction Biology Corp), wild-type FGFR2
# Type: biochemical
# test context: wild-type kinase, 33P-ATP 5 μM, substrate pEY + Mn, 120 minutes at room temperature
Counter-ions that a name gives are not always drawn.
measured property: IC50 (nM)

Examples from the recorded data:
COc1cc(OC)cc(-c2nc(-c3nc(-c4cnn(CC(O)CC(F)(F)F)c4C)cnc3N)cn(C)c2=O)c1 (single isomer, unassigned) [compound 0064] :: 22.7
COc1cc(OC)cc(-c2nc(-c3nc(-c4cn(CCO)nc4C)cnc3N)cn(C)c2=O)c1 :: 56.1
COc1cc(OC)cc(-c2nc(-c3nc(-c4cn(C5CCN(C)CC5)nc4C)cnc3N)cn(C)c2=O)c1 [Trifluoroacetate salt of 0016] :: 4.21
COc1cc(OC)cc(-c2nc(-c3nc(-c4cnc5c(c4)CC(=O)N5C)cnc3N)cn(C)c2=O)c1 [Hydrochloride salt of 0033] :: 314
COc1cc(OC)cc(-c2nc(-c3nc(-c4ccc(C5CCN(C)CC5)nc4)cnc3N)cn(C)c2=O)c1 [Hydrochloride salt of 0036] :: 2.48

1 = COc1cc(OC)cc(-c2nc(-c3nc(-c4ccc(C5(C#N)CCC5)nc4)cnc3N)cn(C)c2=O)c1
2 = COc1cc(OC)cc(-c2nc(-c3nc(-c4cnn(CC5(C#N)CC5)c4C)cnc3N)cn(C)c2=O)c1
3 = COc1cc(OC)cc(-c2nc(-c3nc(-c4cn(CC5(C#N)CC5)nc4C)cnc3N)cn(C)c2=O)c1
Order these by IC50, descending, and give the full ranking. Please write the labels in the order that was asked for.
1, 3, 2

I = COc1cc(OC)cc(-c2nc(-c3nc(-c4cccnc4)cnc3N)cn(C)c2=O)c1 [Trifluoroacetate salt of 0018]
II = COc1cc(OC)c(Cl)c(-c2nc(-c3nc(-c4cn(C)nc4C)cnc3N)cn(C)c2=O)c1 [Trifluoroacetate salt of 0027]
III = COc1cc(OC)cc(-c2nc(-c3nc(-c4cn(C5CCNCC5)nc4C)cnc3N)cn(C)c2=O)c1
Order these by IC50, descending, and give the full ranking. Please write the labels in the order that was asked for.
I, III, II

1 = COc1cc(OC)cc(-c2nc(-c3nc(-c4cn(CC(O)CC(F)(F)F)nc4C)cnc3N)cn(C)c2=O)c1 (single isomer, unassigned) [compound 0062]
2 = COc1cc(OC)cc(-c2nc(-c3nc(-c4cn(CC(O)CC(F)(F)F)nc4C)cnc3N)cn(C)c2=O)c1 (single isomer, unassigned) [compound 0063]
Of 1 and 2 , which shows the smaller IC50 value? To answer, give the label that identifies your chosen option.
1
